- Tested on: Vero cells
- Assay method text: Drug cytotoxicity assay (MTT) on Vero cells
- Format: cell-based, African green monkey
- Condition details: 72 h, Probit regression
- Description: […]
Each record here notes measured Maximum non-toxic concentration (TC0).
Recorded endpoint: Maximum non-toxic concentration (TC0) (g/L)

molecule="CCOC(=O)C1=C[C@@H](OC(CC)CC)[C@H](NC(C)=O)[C@@H](N)C1 [Oseltamivir phosphate, reference compound]" result=0.29
molecule="COc1ccc(C2OCC3C(c4ccc(OC)c(OC)c4)OCC23)cc1O (centres unmarked) [compound 3]" result=0.012
molecule="COc1ccc(C2OCC3C(c4ccc(OC(=O)C(C)c5ccc(CC(C)C)cc5)c(OC)c4)OCC23)cc1OC (centres unmarked) [compound 6]" result=0.012
molecule="COc1ccc([C@H]2OC[C@H]3[C@@H]2CO[C@H]3c2ccc(O[C@@H]3O[C@H](CO)[C@@H](O)[C@H](O)[C@H]3O)c(OC)c2)cc1OC [compound 2]" result=0.0067
molecule="COc1cc(O)cc(C2OCC3C(c4ccc(OC5OC(CO)C(O)C(O)C5O)c(OC)c4)OCC23)c1 (centres unmarked) [compound 1]" result=0.0067

----------
- Test system: influenza virus
- Assay method text: Effect of drug on virus-induced CPE (MTT, antiviral effective rate), influenza virus in Vero cells
- Assay type: cell-based
Recorded endpoint: Effective rate, ER %, Influenza Virus (%)

molecule=COc1ccc([C@H]2OC[C@H]3[C@@H]2CO[C@H]3c2ccc(O[C@@H]3O[C@H](CO)[C@@H](O)[C@H](O)[C@H]3O)c(OC)c2)cc1OC recorded_endpoint="Effective rate, ER %, Influenza Virus" result=85.94
molecule="COc1ccc(C2OCC3C(c4ccc(OC)c(OC)c4)OCC23)cc1O (stereo not shown)" recorded_endpoint="Effective rate, ER %, Influenza Virus" result=83.10
molecule="COc1ccc(C2OCC3C(c4ccc(OC(=O)C(C)c5ccc(CC(C)C)cc5)c(OC)c4)OCC23)cc1OC (stereo not shown)" recorded_endpoint="Effective rate, ER %, Influenza Virus" result=84.51
molecule="COc1cc(O)cc(C2OCC3C(c4ccc(OC5OC(CO)C(O)C(O)C5O)c(OC)c4)OCC23)c1 (stereo not shown)" recorded_endpoint="Effective rate, ER %, Influenza Virus" result=89.02

----------
Median toxic concentration (TC50) for assorted molecules
- Test system: Vero cells
- Assay method text: Drug cytotoxicity assay (MTT) on Vero cells
- Assay type: cell-based, African green monkey
- Condition details: 72 h, Probit regression
Recorded endpoint: Median toxic concentration (TC50) (µg/mL)

molecule="COc1ccc(C2OCC3C(c4ccc(OC(=O)C(C)c5ccc(CC(C)C)cc5)c(OC)c4)OCC23)cc1OC (centres unmarked)" assay_system="Vero cells" recorded_endpoint="Median toxic concentration (TC50)" result=310
molecule="COc1cc(O)cc(C2OCC3C(c4ccc(OC5OC(CO)C(O)C(O)C5O)c(OC)c4)OCC23)c1 (centres unmarked)" assay_system="Vero cells" recorded_endpoint="Median toxic concentration (TC50)" result=560
molecule=COc1ccc([C@H]2OC[C@H]3[C@@H]2CO[C@H]3c2ccc(O[C@@H]3O[C@H](CO)[C@@H](O)[C@H](O)[C@H]3O)c(OC)c2)cc1OC assay_system="Vero cells" recorded_endpoint="Median toxic concentration (TC50)" result=560
molecule="COc1ccc(C2OCC3C(c4ccc(OC)c(OC)c4)OCC23)cc1O (centres unmarked)" assay_system="Vero cells" recorded_endpoint="Median toxic concentration (TC50)" result=310
molecule="CCOC(=O)C1=C[C@@H](OC(CC)CC)[C@H](NC(C)=O)[C@@H](N)C1 [Oseltamivir phosphate, reference compound]" assay_system="Vero cells" recorded_endpoint="Median toxic concentration (TC50)" result=831

----------
- Test system: COVID-19 virus
- Assay method text: In-vitro antiviral CPE test in Vero E6 cells, COVID-19 virus
- Format: cell-based
- Condition details: Vero E6 cells, 100 TCID50, CPE after 3-4 days; unit not given (drug concentrations 250-15.62 μg/mL); in µg/mL
Listed next: entries and their corresponding COVID-19 virus IC50.
Recorded endpoint: COVID-19 virus IC50

compound="COc1ccc(C2OCC3C(c4ccc(OC(=O)C(C)c5ccc(CC(C)C)cc5)c(OC)c4)OCC23)cc1OC (stereo not shown)" result=161.8
compound="COc1ccc(C2OCC3C(c4ccc(OC)c(OC)c4)OCC23)cc1O (stereo not shown)" result=166.5
compound="COc1cc(O)cc(C2OCC3C(c4ccc(OC5OC(CO)C(O)C(O)C5O)c(OC)c4)OCC23)c1 (stereo not shown)" result=62.1
compound=COc1ccc([C@H]2OC[C@H]3[C@@H]2CO[C@H]3c2ccc(O[C@@H]3O[C@H](CO)[C@@H](O)[C@H](O)[C@H]3O)c(OC)c2)cc1OC result=63.3
